Organism: Sus scrofa
measurement-notes: Binding affinity to porcine pancreatic elastase assessed as protein labeling at 2 uM after 15 mins pretreated with 1 mM 3,4-dichloroisocoumarin for 30 mins before compound addition by fluorescent scanning method
Activity calls are given as the source filed them. No cut-off for these calls is given here.
I would appreciate it if you answered using one of these outcomes: active, inactive

Assay outcome for C#CCCC(=O)Nc1ccc2c(Cl)c(OC)oc(=O)c2c1 : what was it?
inactive

What did the test return for C#CCCC(=O)Nc1ccc2c(Cl)c(OCCBr)oc(=O)c2c1 ?
inactive

// return assay outcome for C#CCCOc1oc(=O)c2cc(NC(=O)CNC(=N)N)ccc2c1Cl
inactive

I would be grateful if you could indicate the recorded call for C#CCCOc1oc(=O)c2cc([N+](=O)[O-])ccc2c1Cl .
active

Recorded call for C#CCCOc1oc(=O)c2cc(N)ccc2c1Cl ?
active

----------
test-target: UniProt P00749
measurement-notes: Binding affinity to urokinase-type plasminogen activator assessed as protein labeling at 2 uM after 15 mins by fluorescent scanning method
The source made the active and inactive calls. The rule behind the calls is not given here.
reported-metric: Activity

Illustrative cases are given below, each with its answer.
- C#CCCOc1oc(=O)c2ccccc2c1Cl: Active
- C#CCCOc1oc(=O)c2cc(N)ccc2c1Cl: Active
- C#CCCOc1oc(=O)c2cc([N+](=O)[O-])ccc2c1Cl: Active
- C#CCCOc1oc(=O)c2cc(NC(=O)CNC(=N)N)ccc2c1Cl: Active
- C#CCCC(=O)Nc1ccc2c(Cl)c(OCCSC(=N)N)oc(=O)c2c1: Active

Field: next compound
I'd like to know its Activity. The compound in question is C#CCCOc1oc(=O)c2cc(NC(=O)CN)ccc2c1Cl
Active
